FYI, the data here is from paper PMC6019379.

Biological target: ADAAD (Active DNA-dependent ATPase A domain) (Bos taurus, UniProt Q9TTA5, F727A)
Construct: ATPase domain fragment of bovine SMARCAL1 (RecA-like domains 1 and 2), plasmid pCP101 (pET-14b, NdeI/XhoI), E. coli BL21(DE3), Ni-NTA then DEAE-sepharose; tag removal not mentioned
Sequence (Q9TTA5 221-940 F727A limits assumed): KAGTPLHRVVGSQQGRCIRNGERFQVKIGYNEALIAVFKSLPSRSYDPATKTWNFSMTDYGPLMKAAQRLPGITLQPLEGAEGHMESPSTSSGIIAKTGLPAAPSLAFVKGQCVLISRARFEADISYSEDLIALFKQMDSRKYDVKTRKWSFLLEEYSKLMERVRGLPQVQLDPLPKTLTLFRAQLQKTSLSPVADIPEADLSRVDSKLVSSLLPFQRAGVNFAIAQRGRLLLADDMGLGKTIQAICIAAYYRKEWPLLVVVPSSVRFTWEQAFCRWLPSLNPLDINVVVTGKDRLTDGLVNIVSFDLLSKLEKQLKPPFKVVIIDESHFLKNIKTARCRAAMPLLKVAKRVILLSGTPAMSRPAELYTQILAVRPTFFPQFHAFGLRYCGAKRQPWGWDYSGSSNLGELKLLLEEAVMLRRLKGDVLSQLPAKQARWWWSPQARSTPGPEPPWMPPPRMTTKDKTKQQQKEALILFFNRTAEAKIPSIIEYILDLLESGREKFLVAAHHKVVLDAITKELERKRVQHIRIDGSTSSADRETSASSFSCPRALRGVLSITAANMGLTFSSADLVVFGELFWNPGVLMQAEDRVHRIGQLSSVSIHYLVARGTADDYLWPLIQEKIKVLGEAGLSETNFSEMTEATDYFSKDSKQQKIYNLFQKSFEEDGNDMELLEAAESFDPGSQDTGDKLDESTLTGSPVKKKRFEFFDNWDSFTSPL
Assay: intrinsic tryptophan fluorescence titration (ex […] nm, em […] nm), one-site fit
reportedProperty: pKd
By convention, pKd is the negative base-10 log of a molar concentration.

Quick one: pKd of Nc1ncnc2c1ncn2[C@@H]1O[C@H](COP(=O)(O)OP(=O)(O)OP(=O)(O)O)[C@@H](O)[C@H]1O ?
5.80
